B1: WDFY1 (parent)
chain: FWNIKQMWDTKTLGLRQHHCRKCG

Variants of: B1
Assay: protein stability index of a GFP-peptide fusion (GPS, HEK-293T) (PSI 1-6); higher = more stable;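 note: lentivirally expressed fusions sorted by FACS into six bins by GFP to DsRed ratio, PSI derived from sequencing read proportions per bin multiplied by bin number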
Conditions: c terminus: a fixed tail appended
Exercise: state measured protein stability index for each of the variants provided.
# print the numeric value only

Data point: F1E ; protein stability index = 2.61

Lookup result for L15T ; measured protein stability index: 2.43

Sure, the documented protein stability index for Q6D is 2.42

Looking up L15V , I see its protein stability index listed as 2.35

protein stability index recorded for this variant, C20T , is 2.52

protein stability index in this record for C20H : 2.69

Record summary for L15Q : reported protein stability index = 2.29

The variant listed as M7F has a reported protein stability index of 1.77

Quick note, protein stability index for R21N landed at 1.83

Measured protein stability index of G24I : 2.11

The variant listed as L15K shows protein stability index equal to 2.14

Per the records, this variant ( H19V ) has protein stability index equal to 2.17

Form: variant = K22V ; protein stability index = 1.41

For reference, reported protein stability index for K22H stands at 1.44

Entry T12I ; protein stability index = 1.63

Notebook: Q6M , protein stability index read as 2.06

variant H19F , protein stability index observed: 1.64

Entry under test: R16L . Its protein stability index was 1.79

Measured protein stability index, Q6V : 2.5

# protein stability index (variant: G24L ) is 2.22

Record I4C . Reported protein stability index: 2.67

Kindly note the recorded protein stability index for M7Y , which is 2.45

Given item D9W , the value recorded as its protein stability index is 1.75

According to the records, this variant R16D displays protein stability index of 2.84

Entry F1T , protein stability index reported as 2.28

The value of protein stability index measured for the variant W2P turned out to be 2.32

Lab note: measured protein stability index of L15R was 1.93

protein stability index reading for L13N : 1.96

The variant listed as Q17D has a reported protein stability index of 1.63

Entry T12V — recorded protein stability index = 2.33

protein stability index recorded for this variant, K11G , is 2.08

Documented protein stability index of C20F : 2.41

For record M7G the listed protein stability index is 1.89

Given item R16K , the value recorded as its protein stability index is 2.89

For record H19Q the listed protein stability index is 2.4

Lookup result for K22E ; measured protein stability index: 1.6

Looking up G24M , I found its protein stability index recorded as 1.85

Value of measured protein stability index for the entry N3M : 2.23

# protein stability index of C20N = 2.52

Quick note, protein stability index for T12R landed at 2.73

Documented protein stability index of Q17G : 2.98

# variant K11W ; its protein stability index = 2.44

// W2E : protein stability index value = 2.53

The recorded protein stability index for entry Q17N equals 2.14

Per the records, this variant ( D9V ) has protein stability index equal to 3.82

Please fill in: protein stability index reported for W8V = 2.15
